Source of measurements: ChEMBL document CHEMBL1127325

experimental-system: Gastrin-releasing peptide receptor (Mus musculus)
protocol-notes: The ability of the peptide to inhibit the binding of 50 pM [125I]gastrin releasing peptide to intact S-3T3 cells
Type: cell-based
Where a SMILES comes first, the peptide text is derived from it. [ ]: non-standard residue; d: D form. The star is where a group is joined. dProψ(CH2NH)PheNH2 = NC(=O)[C@H](Cc1ccccc1)NC[C@H]1CCCN1*; X1 = CC(C)(C(=O)*)c1ccccc1
measurement-label: IC50 (pM)

compound	IC50, pM
CC(C)[C@H](NC(=O)[C@H](C)NC(=O)[C@H](Cc1c[nH]c2ccccc12)NC(=O)[C@H](Cc1c[nH]cn1)NC(=O)Cc1ccccc1N)C(=O)N[C@H](C)C(=O)N[C@@H](Cc1c[nH]cn1)C(=O)N1CCC[C@@H]1CN[C@@H](Cc1ccccc1)C(N)=O	100
CC(C)[C@H](NC(=O)[C@H](C)NC(=O)[C@H](Cc1c[nH]c2ccccc12)NC(=O)[C@H](Cc1cnc[nH]1)NC(=O)C1CCc2ccccc2C1)C(=O)N[C@H](C)C(=O)N[C@@H](Cc1cnc[nH]1)C(=O)N1CCC[C@@H]1CN[C@@H](Cc1ccccc1)C(N)=O (some centres undefined)	300
CC(C)CC(NC(=O)[C@H](Cc1c[nH]cn1)NC(=O)C(C)NC(=O)[C@@H](NC(=O)C(C)NC(=O)[C@H](Cc1c[nH]c2ccccc12)NC(=O)[C@H](Cc1c[nH]cn1)NC(=O)CCc1ccccc1)C(C)C)C(O)CC(=O)N[C@@H](Cc1ccccc1)C(N)=O (stereo in doubt)	100
CC(C)[C@H](NC(=O)[C@H](C)NC(=O)[C@H](Cc1c[nH]c2ccccc12)NC(=O)[C@H](Cc1c[nH]cn1)NC(=O)C(C)(C)c1ccccc1)C(=O)N[C@H](C)C(=O)N[C@@H](Cc1c[nH]cn1)C(=O)N1CCC[C@@H]1CN[C@@H](Cc1ccccc1)C(N)=O (X1-HWAV[dA]H-{dProψ(CH2NH)PheNH2})	3

----------
experimental-system: Gastrin-releasing peptide receptor (Mus musculus, UniProt P21729)
Sequence (P21729 whole entry): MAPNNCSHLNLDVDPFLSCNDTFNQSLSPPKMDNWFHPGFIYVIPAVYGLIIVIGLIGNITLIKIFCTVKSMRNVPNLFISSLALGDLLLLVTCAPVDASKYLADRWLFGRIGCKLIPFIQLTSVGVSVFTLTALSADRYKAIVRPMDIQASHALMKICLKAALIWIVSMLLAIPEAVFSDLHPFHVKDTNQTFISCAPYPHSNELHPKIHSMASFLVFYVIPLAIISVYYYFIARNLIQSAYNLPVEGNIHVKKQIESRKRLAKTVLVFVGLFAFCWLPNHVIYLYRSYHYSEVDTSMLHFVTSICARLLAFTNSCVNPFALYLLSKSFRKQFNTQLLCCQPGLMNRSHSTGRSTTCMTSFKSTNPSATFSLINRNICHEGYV
protocol-notes: The ability of the peptide to inhibit the binding of 50 pM [125I]gastrin releasing peptide to intact S-3T3 cells
Assay type: cell-based
pIC50: −log10 of the molar value. Where a SMILES comes first, the peptide text is derived from it. [ ]: non-standard residue; d: D form. The star is where a group is joined. dProψ(CH2NH)PheNH2 = NC(=O)[C@H](Cc1ccccc1)NC[C@H]1CCCN1*; Desaminotyrosyl = O=C(CCc1ccc(O)cc1)*; X6 = C[C@H](C(=O)*)c1ccccc1
measurement-label: pIC50

Examples with answers:
compound	pIC50
CC(C)[C@H](NC(=O)[C@H](C)NC(=O)[C@H](Cc1c[nH]c2ccccc12)NC(=O)[C@H](Cc1c[nH]cn1)NC(=O)[C@@H](C)c1ccccc1)C(=O)N[C@H](C)C(=O)N[C@@H](Cc1c[nH]cn1)C(=O)N1CCC[C@@H]1CN[C@@H](Cc1ccccc1)C(N)=O (X6-HWAV[dA]H-{dProψ(CH2NH)PheNH2})	9.00
CC(C)[C@H](NC(=O)[C@H](C)NC(=O)[C@H](Cc1c[nH]c2ccccc12)NC(=O)[C@H](Cc1cnc[nH]1)NC(=O)CCc1ccc(O)cc1)C(=O)N[C@H](C)C(=O)N[C@@H](Cc1cnc[nH]1)C(=O)N1CCC[C@@H]1CN[C@@H](Cc1ccccc1)C(N)=O (Desaminotyrosyl-HWAV[dA]H-{dProψ(CH2NH)PheNH2})	10.30
CC(C)[C@H](NC(=O)[C@H](C)NC(=O)[C@H](Cc1c[nH]c2ccccc12)NC(=O)[C@H](Cc1c[nH]cn1)NC(=O)C1C[C@@H]1c1ccccc1)C(=O)N[C@H](C)C(=O)N[C@@H](Cc1c[nH]cn1)C(=O)N1CCC[C@@H]1CN[C@@H](Cc1ccccc1)C(N)=O (stereo not given in full)	10.52

(P) CC(C)[C@H](NC(=O)[C@H](C)NC(=O)[C@H](Cc1c[nH]c2ccccc12)NC(=O)[C@H](Cc1cnc[nH]1)NC(=O)c1cccc2ccccc12)C(=O)N[C@H](C)C(=O)N[C@@H](Cc1cnc[nH]1)C(=O)N1CCC[C@@H]1CN[C@@H](Cc1ccccc1)C(N)=O
(Q) CC(NC(=O)[C@H](Cc1c[nH]c2ccccc12)NC(=O)[C@H](Cc1c[nH]cn1)NC(=O)CCc1ccccc1)C(=O)N[C@H](C(=O)NC(C)C(=O)N[C@@H](Cc1c[nH]cn1)C(=O)N1CCC[C@@H]1C(O)CC(=O)N[C@@H](Cc1ccccc1)C(N)=O)C(C)C (stereo in doubt)
# min-compare on pIC50 between P and Q In your reply, give the label of the chosen option.
Q

----------
experimental-system: Gastrin-releasing peptide receptor (Mus musculus) (UniProt P21729)
protocol-notes: Inhibition of 6 nM bombesin induced [3H]thymidine incorporation measured in swiss 3T3 cells using a mitogenicity assay
Type: functional, cell-based
measurement-label: Activity (nM)

(1) CC(C)[C@H](NC(=O)[C@H](C)NC(=O)[C@H](Cc1c[nH]c2ccccc12)NC(=O)[C@H](Cc1c[nH]cn1)NC(=O)Cc1ccc(C(F)(F)F)cc1)C(=O)N[C@H](C)C(=O)N[C@@H](Cc1c[nH]cn1)C(=O)N1CCC[C@@H]1CN[C@@H](Cc1ccccc1)C(N)=O
(2) CC(C)[C@H](NC(=O)[C@H](C)NC(=O)[C@H](Cc1c[nH]c2ccccc12)NC(=O)[C@H](Cc1c[nH]cn1)NC(=O)C[C@H](C)c1ccccc1)C(=O)N[C@H](C)C(=O)N[C@@H](Cc1c[nH]cn1)C(=O)N1CCC[C@@H]1CN[C@@H](Cc1ccccc1)C(N)=O
(3) CC(C)[C@H](NC(=O)[C@H](C)NC(=O)[C@H](Cc1c[nH]c2ccccc12)NC(=O)[C@H](Cc1c[nH]cn1)NC(=O)Cc1ccccc1N)C(=O)N[C@H](C)C(=O)N[C@@H](Cc1c[nH]cn1)C(=O)N1CCC[C@@H]1CN[C@@H](Cc1ccccc1)C(N)=O
For the molecules shown above, give the order from largest Activity to smallest. Note for the reader: the ranking is given by listing the labels in the order requested.
1, 3, 2
(1: 200 nM, 3: 13 nM, 2: 0.16 nM)
